experiment: yeast display, Sf9 membrane polyspecificity reagent, FACS + sequencing; frameworks hold sequencing errors
OBSERVABLE: polyreactivity (PSR sort gate)

QVQLVESGGGLVQAGGSLRLSCAASGSIIGTNVMGWYRQAPGKERELVASISYRDGTTYYADSVKGRFTISRDNAKNTVYLQMNSLKPEDTAVYYCAVANYYSYYWGQGTQVTVSS low polyreactivity
QVQLVETGGGLVQAGGSLRLSCAASGIIFDGNTMGWYRQAPGKERELVAGIDFSDDSTNYADSVKGRFTISRDNAKNTVYLQMNSLKPEDTAVYYCAADTRSPSAHEVDYWGQGTQVTVSS low polyreactivity
QVQLVESGGGLVQAGGSLRLSCAASGSTFYVYAMGWYRQAPGKARELVAAIRSGGSTNYADSVKGRFTISRDNAKNTVYFQLNSLKPEDTAVYYCNADTWLYRYDYWGQGTQVTVSS low polyreactivity

====

experiment: yeast display, Sf9 membrane polyspecificity reagent, FACS + sequencing; frameworks hold sequencing errors
OBSERVABLE: polyreactivity (PSR sort gate)

QVQLVESGGGLVQAGGSLRLSCAASGFTFARYTMGWYRQEPGKERELVAAISSRGSSTYYADSVKGRFTISRDNAKNTVYLQMNSLKPEDTAVYYCAAPPRYGYDYWGQGTQVTVSS high polyreactivity
QVQLVESGGGLVQAGGSLRLSCAASGFTFEYNDMGWYRQAPGIERELVDSISYDSDSTYYADSVKGRFTISRDNAKNTVYLQMNRLKPEDTAVYYCNAGSSYHEYGYWGQGTQVTVSS high polyreactivity

====

assay: yeast display, Sf9 membrane polyspecificity reagent, FACS + sequencing; frameworks hold sequencing errors
OBSERVABLE: polyreactivity (PSR sort gate)

Check out these entries, answers already filled in.
QVQLVESGGGLVQAGGSLRLSCAASGSTFTYYAMGWYRQAPGKERELVAAITGSDGRTYYADSVKGRFTISRDNAKNTVYLQMNSLKPEDTAVYYCAAYFTRYDFRWHTYYYWGQGTQVTVSS low polyreactivity
QVQLVESGGGLVQAGGSLRLSCAPSGRIFSHYAMGWYRQAPGKERELVAAITSDGSTNYADSVKGRFTISRDNAKKTVYLQMNSLKPEDTAVYYSAKYVHIPDYYYLFGSYDYWGQGTQVTVSS low polyreactivity
QVQLVESGGGFVQAGGSLRLSCAASGSTFAYYAMGWDRQAPGKERELVAAITRGGRTYYADSVKGRFTISRDNPKNTVYLQMNSQKPDDTAVYYCNARKYTWYSSRFIRFDYWGQGTQVTVSS high polyreactivity
QVQLVESGGGLVQAGGSLRLSCAASGSTFGPYAMGWYRPAPGKERELVAAIRSGGSTYYADSVKGRFTISRDNAKNTVYLQMNSLKPEDTAVYYCAAGGHHSYTYWIYYYWGQGTQVTVSS low polyreactivity
QVQLVESGGGLVQAGGRLRLSCAASGFTFIRSAMGWYRQAPGKERELVAAISWSDDTTYYADSVKGRFTISRDNAKNTVYLQMNSLKPEDTAVYYCAAEVWYSYAEYDYWGQGTQVTVSS high polyreactivity

// field: polyreactivity (PSR sort gate); key: QVQLVESGGGLVQAGGSLRLSCAASGLIFYSNAMGWYRQAPGKERELVATISGSTGTTNYADSVKGRFTISRDNAKNTVYLQMNSLKPEDTAVYYCAAEWRRYEYADSWEYDYWGQGTQVTVSS ; value = low polyreactivity

According to the records, this sequence QVQLVESAGGLVQAGGSLRLSCAPSGSTFNYYAMGWYRQAPGKESELGAAIDWSGGSTYYADSVKGRFTISRDNAKNTVYLQMNSLKPDDTAVYYCAARTYDYSYGSFDYWGQGTQVTVSS displays polyreactivity (PSR sort gate) of low polyreactivity

Form field polyreactivity (PSR sort gate), entry QVQLVESGGGLVQAGGSLRLSCAASGFTFNYYAMGWYRQAPGKERELVAAITSSGGSTYYADSVKGRFTISRDNAKNTVYLQMNSLKPEDTAVYYCNAAVYAHRYIYGFDYWGQGTQVTVSS : high polyreactivity

Recorded result, QVQLVESGGALVQAGGSLRLSCAASGNTFQRYTMGWYRQAPGKERELVAAITWSGGNTYYADSVKGRFTISRDNAKNSVYLQMNSLKPEDTAVYDCNADYPTTAYDYWGQGTQVTVSS , polyreactivity (PSR sort gate): low polyreactivity

The reported polyreactivity (PSR sort gate) of the sequence QVQLVESGGGLVQAGGSLRLSCAASGRIFNENAMGWYRQAPGKERELVAAISRRGGTTYYADSVKGRFTISRDNAKNTVYLQMNSLIPEDTAVYYCNARYSKKGESQREYDYWGQGTQVTVSS was low polyreactivity

QVQLVESGGGLVQAGGSLRLSCADSGRIFSSNAIGWYRQAPGQERELVASISSTGSTKYADSVKGRFTISRDNAKNTVYVQMNSLKPEDTAVYYCAAGSYLWHFTFDYWGQGTQVTVSS has a reported polyreactivity (PSR sort gate) of low polyreactivity
